pIC50: −log10 of the molar value.
Measured pIC50 on human FAK (Homo sapiens, UniProt Q05397) follows.
Sequence (Q05397 whole entry): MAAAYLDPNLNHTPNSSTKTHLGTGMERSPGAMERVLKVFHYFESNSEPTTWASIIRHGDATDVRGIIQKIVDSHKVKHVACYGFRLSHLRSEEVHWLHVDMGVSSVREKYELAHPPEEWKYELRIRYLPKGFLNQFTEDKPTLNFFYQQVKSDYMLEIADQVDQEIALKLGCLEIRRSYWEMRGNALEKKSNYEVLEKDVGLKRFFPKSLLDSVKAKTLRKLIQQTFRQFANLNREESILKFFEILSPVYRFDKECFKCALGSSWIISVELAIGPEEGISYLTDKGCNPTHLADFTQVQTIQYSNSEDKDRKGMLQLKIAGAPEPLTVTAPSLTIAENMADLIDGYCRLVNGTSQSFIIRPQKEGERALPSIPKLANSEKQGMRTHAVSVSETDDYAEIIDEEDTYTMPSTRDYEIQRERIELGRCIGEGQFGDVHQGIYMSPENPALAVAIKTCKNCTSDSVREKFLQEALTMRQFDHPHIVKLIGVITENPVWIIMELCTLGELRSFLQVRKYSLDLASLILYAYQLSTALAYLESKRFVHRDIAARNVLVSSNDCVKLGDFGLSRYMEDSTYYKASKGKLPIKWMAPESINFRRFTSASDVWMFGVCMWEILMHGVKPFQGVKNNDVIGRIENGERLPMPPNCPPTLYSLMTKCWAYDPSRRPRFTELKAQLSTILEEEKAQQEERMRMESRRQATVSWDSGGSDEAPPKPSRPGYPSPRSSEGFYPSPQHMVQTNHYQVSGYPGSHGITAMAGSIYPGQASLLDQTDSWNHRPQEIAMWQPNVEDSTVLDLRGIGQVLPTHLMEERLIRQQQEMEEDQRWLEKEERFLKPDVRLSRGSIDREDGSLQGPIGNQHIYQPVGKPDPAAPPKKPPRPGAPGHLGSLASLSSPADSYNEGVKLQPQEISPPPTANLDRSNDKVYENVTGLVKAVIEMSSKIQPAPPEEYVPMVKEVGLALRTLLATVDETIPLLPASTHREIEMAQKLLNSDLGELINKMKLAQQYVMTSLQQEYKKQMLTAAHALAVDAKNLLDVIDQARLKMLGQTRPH
property: pIC50

In [3]: df
Out[3]:
                                   compound                               test_system  property  value_operator  test_value
0      COP(=O)(O)c1ccc2[nH]nc(-c3cccs3)c2c1  human FAK (Homo sapiens, UniProt Q05397)     pIC50               <        5.00
1  COP(=O)(Oc1ccc2[nH]ncc2c1)c1ccccc1 (stereo not drawn)  human FAK (Homo sapiens, UniProt Q05397)     pIC50               <        5.00
2  COP(=O)(O)c1ccc2[nH]nc(-c3cc4ccccc4[nH]3)c2c1  human FAK (Homo sapiens, UniProt Q05397)     pIC50               <        5.00
3  CP(C)(=O)Oc1ccc2[nH]nc(-c3cc4ccccc4[nH]3)c2c1  human FAK (Homo sapiens, UniProt Q05397)     pIC50               =        5.12
4  O=P(O)(Oc1ccc2[nH]nc(-c3cc4ccccc4[nH]3)c2c1)c1ccccc1  human FAK (Homo sapiens, UniProt Q05397)     pIC50               =        6.50
5  CC(C)OP(=O)(Oc1ccc2[nH]nc(-c3cc4ccccc4[nH]3)c2c1)c1ccccc1 (stereo not drawn)  human FAK (Homo sapiens, UniProt Q05397)     pIC50               =        5.02
